Values were extracted from paper PMC7312458.

Target: EppA (Chelativorans sp. BNC1, UniProt Q11H97)
Sequence (Q11H97 entry or part of it): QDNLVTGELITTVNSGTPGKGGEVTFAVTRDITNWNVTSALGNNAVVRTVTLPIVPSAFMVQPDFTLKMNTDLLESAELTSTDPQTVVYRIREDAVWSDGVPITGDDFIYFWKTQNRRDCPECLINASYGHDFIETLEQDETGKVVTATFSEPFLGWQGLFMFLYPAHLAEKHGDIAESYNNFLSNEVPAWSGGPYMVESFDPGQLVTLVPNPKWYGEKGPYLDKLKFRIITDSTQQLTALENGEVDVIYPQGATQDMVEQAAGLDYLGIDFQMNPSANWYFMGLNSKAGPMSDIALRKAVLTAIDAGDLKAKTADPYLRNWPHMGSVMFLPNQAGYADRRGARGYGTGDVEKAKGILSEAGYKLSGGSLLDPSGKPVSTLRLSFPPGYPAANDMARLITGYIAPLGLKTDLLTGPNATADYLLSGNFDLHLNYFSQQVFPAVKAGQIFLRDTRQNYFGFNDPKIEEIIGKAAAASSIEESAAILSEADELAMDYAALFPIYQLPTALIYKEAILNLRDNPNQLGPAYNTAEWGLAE
Assay: Isothermal titration calorimetry of wild-type EppA with chelators and metal chelates
Type: binding
Settings: ITC, wild-type EppA, 25 °C, single replicate; n.b. = no binding
QUANTITY KIND: ∆S

Guide cases for ∆S, answers given:
O=C([O-])CN(CCN(CC(=O)[O-])CC(=O)[O-])CC(=O)[O-].[Ni+2] : n.b.
O=C(O)CN(CCN(CC(=O)O)CC(=O)O)CC(=O)O.[Cd+2] : 28.1 cal mol^−1 K^−1
O=C([O-])CN(CCN(CC(=O)O)CC(=O)O)CC(=O)[O-].[Ba+2] : n.b.
O=C(O)CN(CCN(CC(=O)O)CC(=O)O)CC(=O)O.[Zn] : n.b.
O=C([O-])CN(CCN(CC(=O)[O-])CC(=O)[O-])CC(=O)[O-].[Co+2] : n.b.

So the reported ∆S for `O=C([O-])CN(CCN(CC(=O)[O-])CC(=O)[O-])CC(=O)[O-].[Fe+3]` , on EppA (Chelativorans sp. BNC1, UniProt Q11H97), turned out to be n.b.

The recorded ∆S with EppA (Chelativorans sp. BNC1, UniProt Q11H97) for `O=C([O-])CN(CCOCCOCCN(CC(=O)O)CC(=O)O)CC(=O)[O-].[Ca+2]` was n.b.

Form field, ∆S with EppA (Chelativorans sp. BNC1, UniProt Q11H97), item `O=C(O)CN(CCOCCOCCN(CC(=O)O)CC(=O)O)CC(=O)O.[Sr+2]` : 27.1 cal mol^−1 K^−1

Fill in: EppA (Chelativorans sp. BNC1, UniProt Q11H97) ∆S for `O=C([O-])CN(CCN(CC(=O)[O-])CC(=O)[O-])CC(=O)[O-].[Cu+2]` = n.b.

----------
Target: EppA (Chelativorans sp. BNC1, UniProt Q11H97)
Assay: Isothermal titration calorimetry of wild-type EppA with chelators and metal chelates
Format: binding
Details: Kd, ITC, wild-type EppA, 25 °C, single-site model, single replicate; n.b. = no binding
QUANTITY KIND: Kd (nM)
Report the figure in nM without appending any unit label.

compound O=C(O)CN(CCN(CC(=O)O)CC(=O)O)CC(=O)O [EDTA, ethylenediaminetetraacetate] , Kd observed: 9.5

----------
Biological target: R56A EppA mutant (Chelativorans sp. BNC1, UniProt Q11H97, R56A)
Sequence (Q11H97 27-563, stated change not applied): as the sequence (Q11H97 entry or part of it) above
Assay: biochemical
QUANTITY KIND: Kd (nM)
Lab book: enter the figure in nM, no units written.

Measured Kd, O=C(O)CN(CCN(CC(=O)O)CC(=O)O)CC(=O)O [EDTA, ethylenediaminetetraacetate] : 161

----------
Molecular target: EppA (Chelativorans sp. BNC1, UniProt Q11H97)
Test: Isothermal titration calorimetry of wild-type EppA with chelators and metal chelates
Type: binding
Settings: ITC, wild-type EppA
QUANTITY KIND: binding by EppA (in words)

O=C([O-])CN(CCN(CC(=O)[O-])CC(=O)[O-])CC(=O)[O-].[Fe+3] : did not bind
O=C([O-])CN(CCN(CC(=O)[O-])CC(=O)[O-])CC(=O)[O-].[Ni+2] : did not bind
O=C([O-])CN(CCN(CC(=O)[O-])CC(=O)[O-])CC(=O)[O-].[Co+2] : did not bind
O=C(O)CN(CCN(CC(=O)O)CC(=O)O)CC(=O)O.[Cd+2] : did not bind
O=C([O-])CN(CCOCCOCCN(CC(=O)O)CC(=O)O)CC(=O)[O-].[Ca+2] : not

Lab entry: EppA (Chelativorans sp. BNC1, UniProt Q11H97) assay, molecule `O=C([O-])CN(CCN(CC(=O)[O-])CC(=O)[O-])CC(=O)[O-].[Cu+2]` , binding by EppA (in words) = did not bind

Response field binding by EppA (in words) (EppA (Chelativorans sp. BNC1, UniProt Q11H97)) for item `O=C(O)CN(CCN(CC(=O)O)CC(=O)O)CC(=O)O.[Zn]` : did not bind
